B1: tRNA (parent)
chain: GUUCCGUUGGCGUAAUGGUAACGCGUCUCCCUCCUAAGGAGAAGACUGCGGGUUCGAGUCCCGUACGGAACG

Variants of: B1
TEST METHOD NOTES: yeast fitness relative to wild type (ratio to wild type); higher = fitter; tRNA-Arg(CCU), competitive growth, 37 C, YPD
This sample holds only a part of the variants without activity.
Tick Met if yeast fitness is 0.7 or greater. Tick Not met if yeast fitness is less than 0.7.

Consider the worked cases shown below.
> print(dat)
                mutation.id  label.value
1                 A43U U64C          Met
2            C22U C31G A43U      Not met
3        C5U A14U C31G G63A      Not met
4       A15G U54G C55U A65G      Not met
5  A21U C22U G51C G52A U59G      Not met

stdin: Test whether the variant C4A A14U C30A G67C records yeast fitness of 0.7 or higher.
stdout: Not met

stdin: Test whether the variant C5U C11A C34G records yeast fitness of 0.7 or higher.
stdout: Not met

stdin: Test whether the variant C29G C49G C60G records yeast fitness of 0.7 or higher.
stdout: Not met

stdin: Test whether the variant U2A G23A C29G records yeast fitness of 0.7 or higher.
stdout: Not met

stdin: Test whether the variant C22U U32A C46G G52C records yeast fitness of 0.7 or higher.
stdout: Not met

stdin: Test whether the variant C30U G68C records yeast fitness of 0.7 or higher.
stdout: Met

stdin: Test whether the variant C33G A37U A40C A69U records yeast fitness of 0.7 or higher.
stdout: Not met

stdin: Test whether the variant C5G C24G C27G C60U records yeast fitness of 0.7 or higher.
stdout: Not met

stdin: Test whether the variant A40C G56A records yeast fitness of 0.7 or higher.
stdout: Met

stdin: Test whether the variant C11G C30U A37U records yeast fitness of 0.7 or higher.
stdout: Not met

stdin: Test whether the variant C11A C31U U53A A65U records yeast fitness of 0.7 or higher.
stdout: Not met

stdin: Test whether the variant A15U U59C C62A records yeast fitness of 0.7 or higher.
stdout: Not met

stdin: Test whether the variant G25C C30U A69C records yeast fitness of 0.7 or higher.
stdout: Not met

stdin: Test whether the variant A20C G58C records yeast fitness of 0.7 or higher.
stdout: Met

stdin: Test whether the variant A14C A45U G48A C66G records yeast fitness of 0.7 or higher.
stdout: Not met

stdin: Test whether the variant A15U C33U records yeast fitness of 0.7 or higher.
stdout: Met
